# System: cancer cell lines classified IM, MSL, M
# procedure.summary: PRISM screen compound sensitivity correlated with IM, MSL and M subtype of cell lines (101 gene signature)
# Format: cell-based
# test.settings: correlation of PRISM compound sensitivity with M subtype correlation; test cell set (188 cell lines)
assay.metric: M Corr test

{"compound": "CC(C)(O)CC(=O)NCCn1ccc2ncnc(Nc3ccc(Oc4cccc(C(F)(F)F)c4)c(Cl)c3)c21", "M Corr test": 0.2221}
{"compound": "CCN(CC)CCCC(C)Nc1nc(C)cc(Nc2ccc3nc(C)cc(N)c3c2)n1 (centres unmarked)", "M Corr test": "−0.06657"}
{"compound": "N#CCNC(=O)c1ccc(-c2ccnc(Nc3ccc(N4CCOCC4)cc3)n2)cc1", "M Corr test": "−0.1142"}

Value sought for every listed compound: M Corr test.
1. CCCN(CCC)[C@@H]1CCc2c(OC)cccc2[C@@H]1C [UH-232-(+)]
2. CC(C)c1cc(-c2ccc(F)c3ccccc23)nc(N)n1

1: 0.08495; 2: −0.1296

Value sought for every listed compound: M Corr test.
1. CCCCCCCCCCC(C)(C)C(=O)Nc1c(OC)cc(OC)cc1OC
2. COc1cc(C[C@@H]2NCCc3cc(O)c(O)cc32)cc(OC)c1OC
3. O=C(O)[C@H](O)[C@@H](O)[C@H](O[C@@H]1O[C@H](CO)[C@H](O)[C@H](O)[C@H]1O)[C@H](O)CO
4. CNC(=O)c1cnn(-c2nc(N)c3ncn([C@@H]4O[C@H](CO)[C@@H](O)[C@H]4O)c3n2)c1
5. O=C1[C@H](Cc2ccc(O)cc2)N2C(=O)CCN(C(=O)NCc3ccccc3)[C@H]2CN1Cc1cccc2ccccc12
6. CC(C)CCN1c2nc(Nc3cc(F)c(O)c(F)c3)ncc2N(C)C(=O)C1C (centres unmarked)

["−0.082", "−0.00108", "−0.08169", 0.02954, "−0.2223", 0.01001]

Value sought for every listed compound: M Corr test.
1. CN1C(=O)C(N2CCCCC2)S/C1=C\C(=O)O (centres unmarked)
2. Cc1ccc(NC(=O)c2cccc(C(C)(C)C#N)c2)cc1Nc1ccc2ncn(C)c(=O)c2c1
3. NC(=O)CCCCn1ccc(NC(N)=NCC(F)(F)F)n1

["−0.01029", "−0.2327", 0.1647]
